Assignment: determine reported Relative activity (%) (residual TDH activity) for the given compounds.
- Test system: Purified TDH derived from Cupriavidus necator NBRC 102504
- EXPERIMENT_DESCRIPTION: Effect of metal ions and inhibitors on TDH activity (residual activity)
- Type: biochemical
- CONDITION_LABEL: inhibitors final concentration 10 mM, 30° C. for 1 hour; None = 100
One number for each entry, in %.

See these solved cases before continuing.
COMPOUND | READING_UNIT | TEST_RESULT
O=C(O)CN(CCOCCOCCN(CC(=O)O)CC(=O)O)CC(=O)O | % | 94
O=C(O)c1cc[c]([Hg][Cl])cc1 | % | 6.2
CCN1C(=O)C=CC1=O | % | 0.0

Dear reader, for each entry below, please note its Relative activity (%) (residual TDH activity).
1. OCCS
2. O=C(O)CN(CCN(CC(=O)O)CC(=O)O)CC(=O)O
3. O[C@@H](CS)[C@@H](O)CS
4. NC(=O)CI [Iodoacetamide]
5. COS(=O)(=O)[O-].C[n+]1c2ccccc2nc2ccccc21 [PMS, phenazine methosulfate]
6. CCOC(=O)OC(=O)OCC

[114, 103, 125, 0.8, 0.0, 92]
